Biological target: Phosphatidylinositol 4,5-bisphosphate 3-kinase catalytic subunit delta isoform (Homo sapiens, UniProt O00329)
Sequence (O00329 whole entry): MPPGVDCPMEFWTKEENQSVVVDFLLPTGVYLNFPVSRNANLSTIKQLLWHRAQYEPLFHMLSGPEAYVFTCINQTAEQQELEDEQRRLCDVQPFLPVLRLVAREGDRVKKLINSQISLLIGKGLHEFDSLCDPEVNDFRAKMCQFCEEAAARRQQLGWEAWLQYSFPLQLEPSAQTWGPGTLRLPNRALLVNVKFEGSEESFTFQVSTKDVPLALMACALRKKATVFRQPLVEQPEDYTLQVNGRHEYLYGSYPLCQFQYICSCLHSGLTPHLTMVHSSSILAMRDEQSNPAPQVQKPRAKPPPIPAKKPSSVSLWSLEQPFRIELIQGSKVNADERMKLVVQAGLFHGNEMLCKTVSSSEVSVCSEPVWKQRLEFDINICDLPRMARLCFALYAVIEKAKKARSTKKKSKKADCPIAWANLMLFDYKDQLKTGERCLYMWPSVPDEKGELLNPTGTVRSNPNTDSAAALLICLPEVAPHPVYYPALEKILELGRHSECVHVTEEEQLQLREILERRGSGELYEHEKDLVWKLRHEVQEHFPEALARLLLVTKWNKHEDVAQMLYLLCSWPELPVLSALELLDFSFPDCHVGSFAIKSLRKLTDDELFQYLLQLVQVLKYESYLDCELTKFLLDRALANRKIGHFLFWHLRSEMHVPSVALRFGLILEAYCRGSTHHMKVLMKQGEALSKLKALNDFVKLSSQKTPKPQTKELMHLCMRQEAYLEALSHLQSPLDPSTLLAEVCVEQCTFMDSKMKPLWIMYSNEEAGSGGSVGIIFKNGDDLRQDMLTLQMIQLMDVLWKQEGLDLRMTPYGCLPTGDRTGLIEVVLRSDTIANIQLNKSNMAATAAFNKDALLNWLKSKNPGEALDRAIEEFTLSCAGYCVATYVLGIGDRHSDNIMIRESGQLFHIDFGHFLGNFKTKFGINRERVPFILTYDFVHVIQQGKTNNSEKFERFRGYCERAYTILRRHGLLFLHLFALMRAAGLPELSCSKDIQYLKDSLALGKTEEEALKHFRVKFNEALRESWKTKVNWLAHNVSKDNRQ
Experiment: Inhibition of poly-His tagged human PI3Kdelta expressed in baculovirus infected insect sf9 cells coexpressing p85alpha using PI(4,5)P2 as substrate preincubated with compound for 15 mins measured after 10 mins by HTRF assay
readout.label: IC50 (nM)

structure: O=c1cc(N2CCOCC2)nc(Cc2nc3c(-c4ccccn4)cccc3o2)[nH]1
readout.label: IC50
value.reported: 2170
--
structure: Cc1cccc2nc(Cc3nc(N4CCOCC4)cc(=O)[nH]3)oc12
readout.label: IC50
value.reported: 2380
--
structure: O=c1cc(N2CCOCC2)nc(Cc2nc3ccc(Cl)cc3[nH]2)[nH]1
readout.label: IC50
value.reported: 247
--
structure: O=c1cc(N2CCOCC2)nc(Cc2nc3c(F)cccc3o2)[nH]1
readout.label: IC50
value.reported: 8450
--
structure: O=c1cc(N2CCOCC2)nc(Cc2nc3cc(F)ccc3n2C2CC2)[nH]1
readout.label: IC50
value.reported: 36
--
structure: O=c1cc(N2CCOCC2)nc(Cc2nc3ccc(C(F)(F)F)cc3[nH]2)[nH]1
readout.label: IC50
value.reported: 2850
--
structure: O=c1cc(N2CCOCC2)nc(Cc2nc3c(-c4ccccc4)c(F)ccc3o2)[nH]1
readout.label: IC50
value.reported: 151
--
structure: Cn1c(Cc2nc(N3CCOCC3)cc(=O)[nH]2)nc2cc(F)ccc21
readout.label: IC50
value.reported: 855
